Target: CFTR (F508del/MF-HBE cells) (Homo sapiens, UniProt P13569, DEL508-508)
Construct: human bronchial epithelial (HBE) cells derived from CF subjects heterozygous for F508del and a minimal function CFTR mutation; endogenous in cells
Sequence (P13569 with tags, fused parts or gaps DEL508-508): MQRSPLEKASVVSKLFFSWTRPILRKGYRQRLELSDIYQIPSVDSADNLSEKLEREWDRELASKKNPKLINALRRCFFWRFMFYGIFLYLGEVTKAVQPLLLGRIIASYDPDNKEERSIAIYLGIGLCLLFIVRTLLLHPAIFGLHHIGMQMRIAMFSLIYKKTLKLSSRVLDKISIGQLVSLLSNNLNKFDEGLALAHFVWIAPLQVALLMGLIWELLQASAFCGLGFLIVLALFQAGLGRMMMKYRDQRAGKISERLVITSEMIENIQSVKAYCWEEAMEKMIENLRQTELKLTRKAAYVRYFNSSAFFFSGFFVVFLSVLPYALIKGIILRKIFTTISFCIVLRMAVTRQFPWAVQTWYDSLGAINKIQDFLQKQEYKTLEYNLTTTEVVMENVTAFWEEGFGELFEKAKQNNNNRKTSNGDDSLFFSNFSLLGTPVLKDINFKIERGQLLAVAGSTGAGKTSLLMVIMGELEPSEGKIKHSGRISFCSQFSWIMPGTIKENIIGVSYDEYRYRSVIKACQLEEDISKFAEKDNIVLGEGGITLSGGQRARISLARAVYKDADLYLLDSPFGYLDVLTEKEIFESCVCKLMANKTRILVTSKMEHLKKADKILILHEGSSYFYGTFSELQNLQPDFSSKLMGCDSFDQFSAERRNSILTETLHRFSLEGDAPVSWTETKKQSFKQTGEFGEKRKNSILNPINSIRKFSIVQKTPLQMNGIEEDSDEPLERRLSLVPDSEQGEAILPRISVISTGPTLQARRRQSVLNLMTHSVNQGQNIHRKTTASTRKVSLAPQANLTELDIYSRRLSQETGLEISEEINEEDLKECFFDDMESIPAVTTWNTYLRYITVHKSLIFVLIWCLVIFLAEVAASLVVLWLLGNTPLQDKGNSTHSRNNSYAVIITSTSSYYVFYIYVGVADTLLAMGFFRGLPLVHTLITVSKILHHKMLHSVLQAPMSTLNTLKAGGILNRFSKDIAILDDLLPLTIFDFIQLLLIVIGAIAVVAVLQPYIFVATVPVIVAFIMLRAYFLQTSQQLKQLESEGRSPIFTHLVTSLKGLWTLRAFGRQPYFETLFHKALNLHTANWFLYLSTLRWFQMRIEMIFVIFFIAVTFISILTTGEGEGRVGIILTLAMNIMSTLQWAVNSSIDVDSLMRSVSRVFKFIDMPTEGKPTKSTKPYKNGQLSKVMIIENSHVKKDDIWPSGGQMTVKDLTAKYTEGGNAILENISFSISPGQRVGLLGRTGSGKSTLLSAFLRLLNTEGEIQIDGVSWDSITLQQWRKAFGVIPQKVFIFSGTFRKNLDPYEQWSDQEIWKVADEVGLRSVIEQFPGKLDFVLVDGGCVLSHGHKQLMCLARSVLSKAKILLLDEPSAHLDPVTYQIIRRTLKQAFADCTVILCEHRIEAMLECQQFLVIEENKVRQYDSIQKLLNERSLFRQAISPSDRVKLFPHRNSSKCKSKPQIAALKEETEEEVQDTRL
Experiment: Ussing chamber assay of CFTR-mediated short-circuit currents (identification of potentiator compounds)
Conditions: CFTR-mediated ISC in F508del/MF-HBE cells; incubated 18-24 hours at 37° C. with 10 μM (14S)-8-[3-(2-{dispiro[2.0.2.1]heptan-7-yl}ethoxy)-1H-pyrazol-1-yl]-...-2,2,4-trione, 20% human serum
pEC50: −log10 of the molar value.
As shown below, each of these compounds has a reported pEC50 value.

A selection of reference data follows.
Nc1cc(S(=O)(=O)c2ccccc2)c2nc1-c1nnc(o1)C(O)(C(F)(F)F)CCCCC[C@@H]1CCCN21 (single isomer, unassigned) [Compound 140]	< 6.00
Nc1cc(S(=O)(=O)c2ccccc2)c2nc1-c1nnc(o1)C(O)(C(F)(F)F)CCCCC[C@@H]1CCCN21 (mixture of isomers) [Compound 133]	> 6.30

So, Nc1cc(C(F)(F)F)c2nc1-c1nnc(o1)C(O)(C(F)(F)F)CCCCCC(=O)N2 (single isomer, unassigned) [Compound 109] ? Its pEC50 was < 6.00
